Origin of measurements: paper PMC7460390

Experiment: Cell viability, MTT assay, with LPS treatment
Type: cell-based, murine
Details: mouse; RAW 264.7 cells, MTT, LPS 1 µg/mL, 24 h; mean ± SD, n = 3
parameter: CC50

In [3]: df
Out[3]:
                                   compound  measured_result
0  COc1cc(O)c2c(=O)oc3c(O)c(O)cc(C)c3c2c1 [Compound 14, 3’-hydroxyalternariol 5-O-methyl ether]         > 100 µM

---

Entries and their SI, selectivity index, calculated by CC50/IC50
Tested on: NO production in RAW264.7 cells activated by lipopolysaccharide
Assay: Inhibition of NO production in LPS-activated RAW264.7 cells (Griess assay)
Format: cell-based, murine
Settings: CC50 (MTT) / IC50 (NO production), RAW 264.7 cells
parameter: SI, selectivity index, calculated by CC50/IC50

>>> df
                                   compound                              study_target  measured_result
0  Cc1cc(O)cc2oc(=O)c3c(O)cc(O)cc3c12 [Compound 12, alternariol]  NO production in RAW264.7 cells activated by lipopolysaccharide              3.0
1  Cc1cc(=O)c2c(C)cc(O)cc2o1 [Compound 21, 2,5-dimethyl-7-hydroxychromone]  NO production in RAW264.7 cells activated by lipopolysaccharide              1.2
2  COC(=O)C1Cc2cccc(O)c2C(=O)O1 (centres unmarked) [Compound 18, tenuissimasatin]  NO production in RAW264.7 cells activated by lipopolysaccharide              1.2
3  COc1cc(O)c2c(c1)C1(OC2=O)C(C)=CC(=O)C1O (racemic) [Compound 10, ±talaroflavone]  NO production in RAW264.7 cells activated by lipopolysaccharide              1.1
4  COc1cc(O)c2c(c1)C1=C(O)C(=O)C[C@@]1(C)OC2=O [Compound 7]  NO production in RAW264.7 cells activated by lipopolysaccharide              4.0
